Target: α1b-AR (Homo sapiens)
Construct: expressed in transfected cells; host or cells: COS-7 cells (African Green monkey kidney), membranes
Test: α1-Adrenergic Receptor Binding Assay, 125I-HEAT radio-ligand binding, transfected COS-7 cell membranes, α1b subtype
Settings: individual values, COS-7 membranes, read-out: Alpha 1 Ki α1b (2) Individual Values
Description: Membranes were prepared from COS-7 cells (African Green monkey kidney SV40-transformed cells) that had been transfected with one of the three α1-AR subtypes by the following method: COS cells from ten 100 mm tissue culture plates were scraped into a 5 ml volume of TE (a mixture of 50 mM tris(hydroxymethyl)aminomethane hydrochloride (Tris-HCl) and 5 mM ethylenediaminetetraacetic acid (EDTA) at pH 7.4). […] The Ki values (in nM) shown in Table 1 were determined using GraphPad Prism software.
Readout kind: Ki (nM)

Consider the following illustrative entries.
CC(C)Oc1ccccc1N1CCN(CC2CC(C(=O)N3CCC(C(=O)c4ccc(F)cc4)CC3)=NO2)CC1 (single isomer, unassigned) [Compound 41] | 1690
CC(C)Oc1ccccc1N1CCN(CC2CC(CN3CCCCC3=O)=NO2)CC1 (stereo not shown) [Compound 1] | 82

(A) CC(C)Oc1ccccc1N1CCN(CC2CC(C(=O)N3CCOCC3)=NO2)CC1 (single isomer, unassigned) [Compound 44]
(B) COc1ccccc1C1CCN(C(=O)C2=NOC(CN3CCN(c4ccccc4OC(C)C)CC3)C2)CC1 (stereo not shown) [Compound 33]
Request: Short answer wanted: higher Ki, A or B ? Bench note: the answer is the label of the chosen record.
Result: A
(A: 521 nM, B: 254 nM)

###

Target: α1a-AR (Homo sapiens, UniProt P35348)
Construct: expressed in transfected cells; host or cells: COS-7 cells (African Green monkey kidney), membranes
Sequence (P35348 whole entry): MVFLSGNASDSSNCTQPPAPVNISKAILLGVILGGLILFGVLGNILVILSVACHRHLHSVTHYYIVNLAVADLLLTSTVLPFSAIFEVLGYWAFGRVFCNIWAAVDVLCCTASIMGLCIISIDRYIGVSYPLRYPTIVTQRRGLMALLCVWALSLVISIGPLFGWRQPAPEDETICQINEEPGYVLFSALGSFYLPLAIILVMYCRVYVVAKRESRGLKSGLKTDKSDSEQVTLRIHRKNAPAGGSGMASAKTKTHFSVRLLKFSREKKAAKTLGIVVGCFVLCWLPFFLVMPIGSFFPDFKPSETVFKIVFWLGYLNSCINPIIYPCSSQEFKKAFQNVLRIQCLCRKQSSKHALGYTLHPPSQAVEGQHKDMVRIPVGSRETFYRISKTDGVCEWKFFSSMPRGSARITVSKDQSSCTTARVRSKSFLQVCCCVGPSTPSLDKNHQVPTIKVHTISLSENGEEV
Test: α1-Adrenergic Receptor Binding Assay, 125I-HEAT radio-ligand binding, transfected COS-7 cell membranes, α1a subtype
Conditions: individual values, COS-7 membranes, read-out: Alpha 1 Ki α1a (2) Individual Values
Readout kind: Ki (nM)

CC(C)Oc1ccccc1N1CCN(CC2CC(CN3CCc4ccc(N)cc43)=NO2)CC1 (stereo not shown) | 4.3
CC(C)Oc1ccccc1N1CCN(CC2CC(C(=O)N3CC(C)(C)c4cc(Br)ccc43)=NO2)CC1 (single isomer, unassigned) [Compound 42] | 5.87
CC(C)Oc1ccccc1N1CCN(CC2CC(CN3CCCCC3)=NO2)CC1 (stereo not shown) | 10

(P) CC(C)Oc1ccccc1N1CCN(CC2CC(C(=O)N3CCC(S(=O)(=O)c4ccccc4)CC3)=NO2)CC1 (stereo not shown)
(Q) CC(C)Oc1ccccc1N1CCN(CC2CC(C(=O)N3CCC(Cc4ccccc4)CC3)=NO2)CC1 (stereo not shown)
(R) CC(C)Oc1ccccc1N1CCN(CC2CC(CN3CCc4ccc(NCc5ccccc5F)cc43)=NO2)CC1 (stereo not shown)
(S) CC(C)Oc1ccccc1N1CCN(CC2CC(C(=O)N3CCc4ccccc43)=NO2)CC1 (single isomer, unassigned)
Request: Please give the order of these molecules when sorted by Ki, largest value leading. # output: labels, in the requested order
Result: Q, R, P, S
(Q: 11.6 nM, R: 6.9 nM, P: 3.4 nM, S: 0.54 nM)

###

Biological target: α1b-AR (Homo sapiens, UniProt P35368)
Construct: expressed in transfected cells; host or cells: COS-7 cells (African Green monkey kidney), membranes
Sequence (P35368 whole entry): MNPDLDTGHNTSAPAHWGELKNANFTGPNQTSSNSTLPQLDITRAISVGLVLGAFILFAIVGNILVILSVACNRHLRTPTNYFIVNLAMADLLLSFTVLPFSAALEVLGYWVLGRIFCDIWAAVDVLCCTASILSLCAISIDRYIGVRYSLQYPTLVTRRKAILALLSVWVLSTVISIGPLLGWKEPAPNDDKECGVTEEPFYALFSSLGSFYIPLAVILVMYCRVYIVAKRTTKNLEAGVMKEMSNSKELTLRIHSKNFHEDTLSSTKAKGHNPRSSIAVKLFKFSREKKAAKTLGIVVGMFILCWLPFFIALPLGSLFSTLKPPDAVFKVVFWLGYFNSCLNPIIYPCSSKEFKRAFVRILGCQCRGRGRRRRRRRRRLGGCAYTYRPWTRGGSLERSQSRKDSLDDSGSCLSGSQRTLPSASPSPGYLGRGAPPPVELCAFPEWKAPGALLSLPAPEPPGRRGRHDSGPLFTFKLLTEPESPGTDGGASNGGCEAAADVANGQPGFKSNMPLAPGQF
Assay: α1-Adrenergic Receptor Binding Assay, 125I-HEAT radio-ligand binding, transfected COS-7 cell membranes, α1b subtype
Conditions: average value, COS-7 membranes, read-out: Alpha 1 Ki α1b (1) Average Value
Readout kind: Ki (nM)

Consider the following illustrative entries.
CC(C)Oc1ccccc1N1CCN(CC2CC(C(=O)N3CCc4ccc(N)cc43)=NO2)CC1 (stereo not shown) | 141
CC(C)Oc1ccccc1N1CCN(CC2CC(CN3CCCCC3=O)=NO2)CC1 (single isomer, unassigned) [Compound 2] | 53.5

(1) CC(C)Oc1ccccc1N1CCN(CC2CC(CN3CCCCC3)=NO2)CC1 (stereo not shown)
(2) CC(C)Oc1ccccc1N1CCN(CC2CC(C(=O)N3CC(C)(C)c4cc(Br)ccc43)=NO2)CC1 (stereo not shown) [Compound 19]
Request: Short answer wanted: higher Ki, 1 or 2 ? Bench note: the answer is the label of the chosen record.
Result: 1

Hello, the source for this data is patent US20080221116A1, in case you need it.
